Target: JAK3 enzyme (Homo sapiens, UniProt P52333)
Sequence (P52333 1-1124): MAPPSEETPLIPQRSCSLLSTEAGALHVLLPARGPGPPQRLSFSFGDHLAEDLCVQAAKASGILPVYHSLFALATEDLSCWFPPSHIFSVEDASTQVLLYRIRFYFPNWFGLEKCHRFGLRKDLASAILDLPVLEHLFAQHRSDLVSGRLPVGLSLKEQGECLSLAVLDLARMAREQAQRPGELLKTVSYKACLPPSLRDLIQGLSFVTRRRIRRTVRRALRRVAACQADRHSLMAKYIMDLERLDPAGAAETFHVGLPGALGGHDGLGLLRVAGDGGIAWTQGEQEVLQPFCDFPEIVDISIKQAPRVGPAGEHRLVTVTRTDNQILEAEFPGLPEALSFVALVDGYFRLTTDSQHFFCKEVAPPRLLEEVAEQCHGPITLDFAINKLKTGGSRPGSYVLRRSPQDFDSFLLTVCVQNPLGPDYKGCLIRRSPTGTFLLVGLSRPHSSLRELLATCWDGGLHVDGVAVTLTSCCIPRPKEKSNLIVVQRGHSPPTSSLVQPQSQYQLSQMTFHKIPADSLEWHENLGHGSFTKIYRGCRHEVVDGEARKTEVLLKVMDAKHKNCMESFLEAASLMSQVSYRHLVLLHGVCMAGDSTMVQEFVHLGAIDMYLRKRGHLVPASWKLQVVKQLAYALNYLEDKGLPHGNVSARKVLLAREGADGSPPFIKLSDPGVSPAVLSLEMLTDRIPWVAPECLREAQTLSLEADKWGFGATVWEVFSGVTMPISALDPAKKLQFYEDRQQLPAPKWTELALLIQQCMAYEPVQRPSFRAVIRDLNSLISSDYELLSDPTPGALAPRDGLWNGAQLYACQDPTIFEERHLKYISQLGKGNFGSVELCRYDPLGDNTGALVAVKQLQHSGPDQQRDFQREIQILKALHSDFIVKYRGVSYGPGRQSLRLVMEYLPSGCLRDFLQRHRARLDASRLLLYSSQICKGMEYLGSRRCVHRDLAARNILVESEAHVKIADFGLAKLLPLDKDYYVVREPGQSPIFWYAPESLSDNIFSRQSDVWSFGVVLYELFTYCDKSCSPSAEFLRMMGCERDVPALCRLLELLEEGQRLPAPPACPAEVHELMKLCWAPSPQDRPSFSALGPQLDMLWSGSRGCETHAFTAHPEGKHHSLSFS
Test: JAK Caliper Enzyme Assay at 4 μM ATP
Assay type: biochemical
Could you please mark true (1) for values of IC50 below 0.6 nM and false (0) for values at or above it?

Example entries and their recorded answers appear below.
C=CC(=O)N1C[C@@H](CO)C[C@@H](Nc2ncnc3[nH]ccc23)C1 (racemic) [Example 97]
false (0)
C=CC(=O)N1C[C@H](Nc2ncnc3[nH]ccc23)CC[C@H]1[C@@H](C)O (single isomer, unassigned)
false (0)
C=CC(=O)N1CCC(Oc2cnc3[nH]cc(C(=O)NCCCC)c3c2)CC1
false (0)
C=CC(=O)N1CCC(Oc2cnc3[nH]cc(C(=O)NCC(C)C)c3n2)CC1
true (1)
C=CC(=O)N1CCN(c2cnc3[nH]cc(C(=O)NCC4CC(F)(F)C4)c3n2)C[C@@H]1CC(C)C
false (0)

## Task In plain terms, does C=CC(=O)N1CCN(c2cnc3[nH]cc(C(=O)NC(CC)(CC)CO)c3n2)CC1(C)C come in under 0.6 nM for IC50?
## Result false (0)

## Task Input C=CC(=O)N(C)C1CN(c2cnc3[nH]cc(C(=O)N[C@H](C)COC)c3n2)C1
## Result true (1)

## Task Input C=CC(=O)N1CCN(c2cnc3[nH]cc(C(=O)NCC(C)(C)C)c3n2)CC1
## Result true (1)

## Task Input C=CC(=O)N1CCN(c2cnc3[nH]cc(C(=O)N[C@H](CC)CC#N)c3n2)C[C@@H]1CC(C)C
## Result true (1)
